Source listed as paper PMC9037180.

test system: Aciento sensitive; test: Minimal bactericidal concentration (MBC); format: cell-based, A. baumanii; conditions: Acinetobacter baumannii
Kindly apply the following: rule met if MBC is less than 80 µM, rule not met in every other case.

Worked examples follow.
CCCCCCCCCCCCOc1ccc(C=NNC(=O)c2ccc(OC)c(OC)c2)cc1 [Compound 4j] = rule met
COc1ccc(C(=O)NN=Cc2cc(C(C)(C)C)cc(C(C)(C)C)c2O)cc1OC [Compound 4g] = rule met
COc1ccc(C(=O)NN=Cc2ccc(N)cc2)cc1OC [Compound 4a] = rule not met
COc1ccc(C(=O)NN=Cc2cc(Cl)cc(Cl)c2O)cc1OC [Compound 4f] = rule not met

Exercise: Consider COc1ccc(C(=O)NN=Cc2cc(Br)cc(Br)c2O)cc1OC [Compound 4e] . Does its MBC lie strictly below 80 µM?
Solution: rule met

Exercise: Next: CO/N=C(\C(=O)N[C@@H]1C(=O)N2C(C(=O)O)=C(CSc3nc(=O)c(=O)[nH]n3C)CS[C@H]12)c1csc(N)n1 [ceftriaxone, reference compound]
Solution: rule not met
